Target: NGF (nerve growth factor) (Homo sapiens, UniProt P01138 P01138:122-241)
Sequence (P01138 122-241, one chain of several): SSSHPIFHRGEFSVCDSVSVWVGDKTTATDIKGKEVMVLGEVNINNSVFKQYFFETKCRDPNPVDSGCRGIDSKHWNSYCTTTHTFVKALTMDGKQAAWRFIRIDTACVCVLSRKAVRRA
Test: cell_activity; neurite; TF-1 0.097
Settings: tags: R&D Systems; chain copies: 2
Assay Readout: pIC50
One number for each entry, as −log10 of the molar value.

Could you tell me which pIC50 is on file for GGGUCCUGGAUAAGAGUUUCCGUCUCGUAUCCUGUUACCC (ssRNA, as 82(25) except dU7) [SEQ ID NO: 82(37)] ?
10.01
